Catalogue of RBNS R-value readings, one per entry.
system: PyIESI-1 RRM domain (Plasmodium yoelii PY17X_0911200 aa 795-956, GST fusion); test: RBNS R-value (6-mer enrichment in protein-bound RNA vs input library) (ratio); higher = stronger binding preference; the methods of the paper give 50 / 100 / 500 nM protein instead; conditions: protein concentration: 500 nM
The full ranking holds about 4,100 sequences; the median of “RBNS R-value (6-mer enrichment in protein-bound RNA vs input library)” is about 0.96, and the highest 2% start at about 2.4. The entries come from a sample that favours the highest values as a whole.

SEQUENCE_INPUT	RBNS R-value
CAUGUC	0.722
AAAUGC	0.952
CAGAUU	1.52
GUGAGA	1.06
GGGGGA	1.05
CAUGCA	0.762
GUUUGG	0.866
CUCACG	0.969
AUCCCU	0.921
UCCAGG	1
GAUAGU	1.41
AAUGUA	0.662
UCCGUG	1.15
AAAUGA	2.3
UGGAUU	1.04
AAUGCU	0.932
CUGAAU	1.11
CAUGUG	1.04
CUUAGA	0.948
GUGGAG	0.977
AAUGCG	0.968
GUGAAA	0.961
CUCGGA	0.974
GAUAGA	1.93
GAUGCU	2.42
UUAGCC	0.907
GUGAUA	2.94
GAAUGC	1.18
